- ASSAY_OVERVIEW: Pharmacokinetic evaluation in Mice (Table 4)
- RUN_CONDITIONS: mouse, in vivo, Table 4, PO 1 mg/kg
- Method: Aza-T-dCyd was administered orally and intravenously at various concentrations to Mice, Rats and Dogs to determine the PK profile.
PROPERTY: Cmax (ng/mL)

[
  {
    "COMPOUND": "Nc1ncn([C@H]2CC(O)[C@@H](CO)S2)c(=O)n1 (stereo partly shown)",
    "OBS_VALUE": 138
  }
]

###

- ASSAY_OVERVIEW: Pharmacokinetic evaluation in Mice (Table 4)
- RUN_CONDITIONS: mouse, in vivo, Table 4, PO 0.5 mg/kg
PROPERTY: Cmax (µg/mL)

[
  {
    "COMPOUND": "Nc1ncn([C@H]2CC(O)[C@@H](CO)S2)c(=O)n1 (stereo partly shown) [Aza-T-dCyd, 4′-thio-5-aza-2′-deoxycytidine]",
    "UNIT_LABEL": "µg/mL",
    "OBS_VALUE": 0.211
  }
]
